# cell viability per record follows
Tested on: SEM cells
assay.text: cell viability relative to DMSO control; higher = less cytotoxic
run.parameters: RPMI 5 mM glucose + 10% FBS; 48 h; 0.0632 µM
Write the number in % without appending the unit.

Ask: What value of measured cell viability is listed for COC1=CC=C(C(=C1)OC(C)C)C/2=N/[C@@H]([C@@H](N2C(=O)N3CCNC(=O)C3)C4=CC=C(Cl)C=C4)C5=CC=C(Cl)C=C5 ?
Result: 60.6

Ask: Item: CCCCN(CCCC)CC(O)c1cc(Cl)cc2c1-c1ccc(Cl)cc1/C2=C/c1ccc(Cl)cc1 (stereo not given)
Result: 95.1

Ask: Item: CNc1nc(Nc2cnn([C@H]3CCN(C4COC4)C[C@@H]3F)c2Cl)ncc1C(F)(F)F
Result: 85.3

Ask: Item: COC(=O)c1ccc2c(c1)NC(=O)/C2=C(\Nc1ccc(N(C)C(=O)CN2CCN(C)CC2)cc1)c1ccccc1
Result: 68

Ask: Item: CCOC(=O)\C1=C\[C@]2(CC)CCCN3CCC4=C([C@H]23)[N]1C5=C4C=CC=C5
Result: 121

----------
Tested on: NOMO1
assay.text: cell viability relative to DMSO control; higher = less cytotoxic
run.parameters: HPLM + 10% dialyzed FBS; 48 h; 1.71 µM
# cell viability per record follows
Write the number in % without appending the unit.

Study these solved cases before continuing.
[[record]]
structure_smiles = "CN1CC(=O)N2[C@H](c3ccc4c(c3)OCO4)c3[nH]c4ccccc4c3C[C@@H]2C1=O"
val = 83.3

[[record]]
structure_smiles = "CCOC(=O)\\C1=C\\[C@]2(CC)CCCN3CCC4=C([C@H]23)[N]1C5=C4C=CC=C5"
val = 123


// next item, cell viability requested
Ask: What value of measured cell viability is listed for COc1cccc2c1C(=O)c1c(O)c3c(c(O)c1C2=O)C[C@@](O)(C(=O)CO)C[C@@H]3O[C@H]1C[C@H](N)[C@H](O)[C@H](C)O1 ?
Result: 90.2

----------
# cell viability per record follows
Test system: P12-Ichikawa
assay.text: cell viability relative to DMSO control; higher = less cytotoxic
run.parameters: RPMI 5 mM glucose + 10% dialyzed FBS; 48 h; 0.0632 µM

Study these solved cases before continuing.
[[record]]
compound = "CCOC(=O)C(C)OC1=CC=CC2=C1\\C=C/N(CC(=O)NC3=CC=C4OCCOC4=C3)C2=O (stereo not given)"
assay_readout = "cell viability"
val = "85.7%"

[[record]]
compound = "CN1CCCN(CC1)C2=CC=C3C(=O)\\C(=C/4SC5=C(C=CC=C5)N4C3=N2)C(=O)NCC6=CN=C(C)C=N6"
assay_readout = "cell viability"
val = "107%"

[[record]]
compound = "COC1=C(OCCCN2CCOCC2)C=CC\\3=C1/N=C(/NC(=O)C4=CN=C(N)N=C4)N5CC/N=C35"
assay_readout = "cell viability"
val = "87.3%"

[[record]]
compound = "N[C@@H]1CONC1=O"
assay_readout = "cell viability"
val = "105%"


Ask: What value of measured cell viability is listed for CC[C@H]1OC(=O)[C@H](C)C(=O)[C@H](C)[C@@H](O[C@H]2O[C@H](C)C[C@H](N(C)C)[C@H]2O)[C@](C)(OC)C[C@@H](C)C(=O)[C@H](C)[C@H]2N(CCCCn3cnc(-c4cccnc4)c3)C(=O)O[C@]12C ?
Result: 130%
